molecular target: human NKp30 (human) (UniProt O14931); assay: BLI, immunoligand on anti-hFc tip
Sequence (O14931 19-135 limits assumed): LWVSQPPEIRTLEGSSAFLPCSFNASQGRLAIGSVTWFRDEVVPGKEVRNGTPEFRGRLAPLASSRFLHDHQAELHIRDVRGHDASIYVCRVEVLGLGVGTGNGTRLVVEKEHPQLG
recorded_endpoint: koff (s⁻¹)
Please respond with the number in s⁻¹ and leave the unit unwritten.

Record ΔB7-H6_S3#12-SEED-PGLALA (bispecific antibody, part only; not given: SEED Fc chains and hu225 Fab, part only) chain, part: DLKVEMMAGGTQITPLNDNVTIFCNIFYSQPLNITEMGITWFWKSLTFDKEVKVFEFFGDHQEAFRPGAIVSPWRLKSGDASLRLPGIQLEEAGEYRCEVVVTPYKAQGTVQLEVVASPAS . Reported koff: 0.0865

Record ΔB7-H6_S2#7-SEED-PGLALA (bispecific antibody, part only; not given: SEED Fc chains and hu225 Fab, part only) chain, part: DLKVEMMAGGTQITPLNDNVTIFCNIFYSQPLNITSMGITWFWKSLTFDKEVKVFEFYGDHQEAFRPGAIVSPWRLKSGDASLRLPGIQLEEAGEYRCEVIVTPYKAQGTVQLEVVTSPAS . Reported koff: 0.0964

Record ΔB7-H6_S3#16-SEED-PGLALA (bispecific antibody, part only; not given: SEED Fc chains and hu225 Fab, part only) chain, part: DLKVEMMAGGTQITPLNDNVTIFCNIFYSQPLNITLMGITWFWKSLTFDKEVKVFEFYGDHQEAFRPGAIVSPWRLKSGDASLRLPGIQLEEAGEYRCEVVVTPYKAQGTVQLEVVASPAS . Reported koff: 0.0289

Record ΔB7-H6_S2#11-SEED-PGLALA (bispecific antibody, part only; not given: SEED Fc chains and hu225 Fab, part only) chain, part: DLKVEMMAGGTQITPLNDNVTIFCNIFYSQPLNITTMGITWFWKSLTFDKEVKVFEFWQDHQEAFRPGAIVSPWRLKSGDASLRLPGIQLEEAGEYRCEVVVTPLKAQGTVQLEVVASPAS . Reported koff: 0.115
